assay: label from the status in PepcDB records
Recorded Endpoint: protein production

MQDRMLRRVFILAGIALLLWVLYLLKPVVIPFVGAFLIAYLFSPLVEKLSKIGLPRWLSISIVFIGIGVLLTWAMWYVVPLVWQQLMYARDSIPSGIHWVNATFLPWVSHTFNVERMEIDTDQISTVVMEYIQTNYSADSIQTMALRLAQSGLNFIQIGGTIVLIPIISFYFLLDWDRMLNSLRRLIPRPYEESTLRIVYECHSVLGAFVKGQFLVMLLLGIVYAVGLQLIGLEVGLIIGMVAGLASIIPYLGFAVGIIAAVIATVFQFGVDWMQLALVGVVFMIGQAVEGYILQPFLLGDKIGLSPVAVVFAVLAGAQLAGFLGMLIALPVAAVIVVLLRHLREAYEHTQMYAGTATVVSTGNGEHISIETENLDLDIEVKNPQDTDTSIDNDRK :: failed
MDSLTSLTSFVRTAETLSFVQAARLLGISASAVGKNVARLEHKLGVRLFNRSTRNVSLTAEGAAFLTRCQSILEQIQEAESELTSSLSQPTGKLRISLPVIGYRLLLPALTAFSRLYPQVELDLDFSDRLVNLIDEGVDVAIRSGELADSRLIARKLGGFRFVLCASPAYLAEYGAPDSPAELAAHKCIFFRFPATGLIQPWELRGMRLTGDFRSAAVMTVNNIEAAIRLSAAGMGIAYVPDFVVREAMDEGQLQEVLPGCCIKDGHFSVLWPASRYLSPRIRCFIDFMAAAEIPLSPASAPPPLVSNNLR :: failed

====

test: label from the status in PepcDB records
Recorded Endpoint: protein production

MTPTPSFAAYVGAHWAAVVIYVIATVVNVYGLLFRSEPAERWSYRLISVGWMIHSVVIAYWWWVTGHGPYLSRNEVLSSDAWIALTVFMCFQRLYPRVRPASIVVFPSVFLMIALGLFFDVQIRTLPPTFSGIWLVIHIAFYKIALGTILIALACSIFLVLKKRTPFAWLQRLPDLESLDLHAYRFAGFGFIIWAIAMLAGSIWAYKSWGRFWGWDPVENWSLITWILFGIHLHLRRFFRWSGERAALFYVVCFIFSLVALFYTSHMDTSIHMEYFR :: failed
MINMKPQYYLGMMSGTSLDGVDIVLVDFSQDPQLILSDFFPMPEDLREKLTTLIQVGETTLQNLGELDHKLALLYSDCVNAFLQKNTFLPNQIQAIGCHGQTVWHSPNSQFPFTMQLGDMNLLAAKTGISVIGDFRRKDMAWGGQGAPLVPAFHEAVFSNSNFATAVLNIGGISNVSILFPNQAVIGFDTGPGNTLLDQWIEKHQGLRYDENGEWAAKGNVNKVLLDELLNEPFFSLPAPKSTGRELFNLVWLNHKIAKIREKLTALSVEMSFRPEDVQATLVELTVTSIVNALNQLQTDLPKRLLVCGGGAKNSLIMRGLHDNLLDWQVSTTTEQGFDIDYVEAAAFAWLAYCRINNLPANLPSVTGAKSAVSLGAIFPKD :: failed

====

assay: label from the status in PepcDB records
Recorded Endpoint: protein production

MTSNGQQGKPNLPEKDNLPRELGTQRINSPIARMGMFGAKTTGDTSGYGRLRVYRHVPAAAQRPYSDPSDPRTAYFDEVADALERSLKEIGTPYDTAISRVVVDRGEITFHVQREHLLDVATRLRDDPALRFELCLGVTGVHYPEDEGNELHAVYALRSITHNYEIRLEVSCPDSDPHIPSIVSVYPTNDWHEREAWDFFGIIFDGHPALTR :: not failed
ELLKSGKAKDRFEGEENAPVTIVEYASLTCVHCAHFYNDVLPQIRKKYIKTGKVKLIFRDFAFDSRATAGFMLARCAPEDRYFPLIEVLFQKQSEWVWARDAVTPLKKIGLMAGFTDESFNACLKNQSILDEVNASFERGKELGVNATPTFFINGNKYEGAMSVEAFFSVIDSFLKN :: not failed
MTISEVSKKYELSADTLRYYERIGLIPPVNRNKSGIRSFTEEDCEWVNFIKCMRGAGLSIETLIEYVAMFQQGSSTIKARKELLIEQRNQLAKRIEEMQKTLERLNFKIDRYEEGIIEKEKVLKSSRNKKMEAVSYE :: not failed

====

assay: label from the status in PepcDB records
Recorded Endpoint: protein production

MLKIFSTQLSGYFSRVSQKEEMNIEDSARLLAQALVGEGFIYLHGTNEMEGVVAEALFGAEPMKQAKRLFENGKEVEVTSADRVLLISRFSTDEEVVAIAKKLQADGHSIVGISAIQEGNESLEQYTDVHIDTKLLKGLIPDDEGNRYGFPSLMIALFAYHGIKFTIDEMLNEY :: not failed
MWVKPLREASQGKKEEEIHIKTSSSSSARSLAPLLVLKLIRSLSSSSARLQASQLVLKLLCSSSSSSACPQALQLALKLLCWSSSSSTGPQAPQLVFKLSSSSLSSARLQAPPLNDHLLA :: failed
MAEGGGCRERPDAETQKSELGPLMRTTLQRGAQWYLIDSRWFKQWKKYVGFDSWDMYNVGEHNLFPGPIDNSGLFSDPESQTLKEHLIDELDYVLVPTEAWNKLLNWYGCVEGQQPIVRKVVEHGLFVKHCKVEVYLLELKLCENSDPTNVLSCHFSKADTIATIEKEMRKLFNIPAERETRLWNKYMSNTYEQLSKLDNTVQDAGLYQGQVLVIEPQNEDGTWPRQTLQSKSSTAPSRNFTT :: failed
MQPTGNQIQQNQQQQQQLIMRVPKQEVSVSGAARRYVQQAPPNRPPRQNHQNGAIGGKKSSVTIQEVPNNAYLETLNKSGNNKVDDDKLPVFLIKLWNIVEDPNLQSIVHWDDSGASFHISDPYLFGRNVLPHFFKHNNMNSMVRQLNMYGFRKMTPLSQGGLTRTESDQDHLEFSHPCFVQGRPELLSQIKRKQSARTVEDKQVNEQTQQNLEVVMAEMRAMREKAKNMEDKMNKLTKENRDMWTQMGSMRQQHARQQQYFKKLLHFLVSVMQPG :: failed
LQQQEEETYADACDEFLDPIMSTLMCDPVVLPSSRVTVDRSTIARHLLSDQTDPFNRSPLTMDQIRPNTELKEKIQRWLAERKQQ :: not failed
MAIKGPRKHLKRLAAPANWQLPRKVKTFTVRPSPGPHSMDKSLPLLLVVRDVLKYADNAREAKKIIQTGKILIDGLKRKEYKHPAGLMDVLSIPEMDETYLVLFDESGRISLKKTDKTDVKLCKIVNKTVVKGGNIQLNLHDGRNQIVKVSDAAKAEEDVYKTGDSVLISIPEQSIAGHVAFGEGKLAYITGGKHVGEFAKIVEVENRALYSDIVTLENKDGEKFKTVKPYVFIVGQDEPVISMLEHHHHHH :: not failed
MTEINLLQPMHASTKRDYVQRVVEHDKAESAAVARQWGRDYWDGDRRYGYGGYRYDGRWRPLAQTLIDRYGIKPGMSVLDVGCGKGYLLYEFTQLVPDLTIAGIDVSEYGIANAKEDVRPQLRVGSAVELPYPDHSFDLVVSLGVLHNLPLEDVFRAVSEIERVGRGASKYLMVESFRNEREKANLLYWQLTCLSFHGPDTWAWIYDKCGYRGDHGFIFFE :: failed

====

experiment: label from the status in PepcDB records
Recorded Endpoint: protein production

MGGHFWPPEPYTVFMWGSPWEADSPRVKLRGREKGRQTEGGAFPLVSSALSGDPRFFSPTTPPAEPIVVRLKEVRLQRDDFEILKVIGRGAFSEVAVVKMKQTGQVYAMKIMNKWDMLKRGEVSCFREERDVLVNGDRRWITQLHFAFQDENYLYLVMEYYVGGDLLTLLSKFGERIPAEMARFYLAEIVMAIDSVHRLGYVHRDIKPDNILLDRCGHIRLADFGSCLKLRADGTVRSLVAVGTPDYLSPEILQAV :: failed
MGNTDKLMNQIFDLKFTSKSLQRQSRKCEKEEKAEKLKVKKAIEKGNMDGARIYAENAIRKRSEQMNYLRLASRLDAVVARLDTQAKMTTITKSMTNIVKSLESSLATGNLQKMSETMDSFEKQFVNMEVQAEFMENAMAGSTSLSTPEGEVNSLMQQVADDYGLEVSVGLPQPAGHAIPTKTEEKVDEDDLSRRLAELKARG :: failed
MSSEHSANGGPASAYGKPTFARASTPLPIQSAHMASDPIQITPSLTIPPSELVERFVRASGAGGQNVNKVSTAVELRFDVAGSPSLPEPLRARLLSRRDRRMTAEGVLVIDAQRFRTQDRNRDDARERLAEIISACLSVPKRRVATKPSHGAKLRRLDAKRERSHIKRGRSASHWE :: failed
MIDKREVLAPNRRSRQREEIVAEEKRYEVYFQPLLSGVEVKKSNEIKIVLPQQEYNRIEQGAKGTLRLQGTRYISFVPNSVAKLEHHHHHH :: not failed
MSHPSYPPAPQNDAGAGIPQVPAAPYAYGRQFQGGAQPGYQPGPDSGPYGSPVGAPAKSFMTTWILALLLGSFGVDRFYLGKIGTGIAKLLTAGGFGIWSIVDLIITLTGNARDKQGRPLAGYPENKKKAWIITIVVWFAGLIVGIVSTVLSLTFVAAAVQGAGTDAPVLPSASQEAPAPSSGTASDDGSLTVTMSEGNTVKVSLLNSGYTTEIPGMSYMKPTRGGFLLLEVSWEATAGSSYASPSNFEAFDADGAKGEEIYVEEGLGGLPSGDVAAGEMQRGVIAFDIKNGPTTVVISDDFGDKAATFTLTPAN :: failed
MFAGSIPMYIRVVSITAQSKLQFDMTVTYFENVWSPKVISLGAISAEFVQSNENSGMYIIHYPDKQTAISVFDKIKPEVDEVRTQNRIQITEGKRLFRVD :: not failed
MGDPFGGRFGGFRGSLFGGRDPFDDPFFSRPFEDLLEPSNTFSSGASFSNAHKNNGGRGLTIEELPSDEEVEERKDIGIDDQEHASSVNKPSVEHPEDDSDAERKIQNVNQRSDFNRREGTQSRANTFRHHISKVTYGGIHGAYYTSTRTRRKDGDGMVVEESKEADKTTGEATHRISRGINDKVIDYTVDGHSVTRKLNSSGGVESTQTLHNLDEGPAESTQPYHNLKFFERKLAGF :: failed
